Test system: HeLa MZ
Test: filipin (cholesterol) integrated intensity within LBPA endosomes, Z-score; higher = more cholesterol in LBPA endosomes
Conditions: compound concentration in added solution (µM; 5 µl added to 20 µl cells): 10; 18 h
Structures can show the parent of a compound that is named as a salt.
experimental.endpoint: filipin (z-score)
Could you keep your reply to the number by itself?

Ask | Name the reported filipin (z-score) value associated with the molecule CCC(C)(CN(C)C)OC(=O)c1ccccc1 (stereo not given) [Amyleine hydrochloride]
Reply | -0.471

Ask | Name the reported filipin (z-score) value associated with the molecule CCc1oc2ccccc2c1C(=O)c1cc(Br)c(O)c(Br)c1 [Benzbromarone]
Reply | -0.42

Ask | Name the reported filipin (z-score) value associated with the molecule CC(C)(C)NC(=O)[C@@H]1C[C@@H]2CCCC[C@@H]2CN1C[C@@H](O)[C@H](Cc1ccccc1)NC(=O)[C@H](CC(N)=O)NC(=O)c1ccc2ccccc2n1 [Saquinavir mesylate]
Reply | 0.906

Ask | Name the reported filipin (z-score) value associated with the molecule CN(Cc1cnc2nc(N)nc(N)c2n1)c1ccc(C(=O)N[C@@H](CCC(=O)O)C(=O)O)cc1 (racemic) [Amethopterin (R,S)]
Reply | -0.934

New cases:
Ask | Name the reported filipin (z-score) value associated with the molecule CC(CN(C)C)C(C)(O)Cc1ccc(Cl)cc1 (stereo not given) [Clobutinol hydrochloride]
Reply | -0.205

Ask | Name the reported filipin (z-score) value associated with the molecule CCC1(C)CC(=O)NC1=O (stereo not given) [Ethosuximide]
Reply | -0.464

Ask | Name the reported filipin (z-score) value associated with the molecule NC[C@H]1CC[C@H](C(=O)O)CC1 [Tranexamic acid]
Reply | -0.663

Ask | Name the reported filipin (z-score) value associated with the molecule CC(C)NC[C@@H](O)COc1cccc2ccccc12 [(R)-Propranolol hydrochloride]
Reply | 0.265

Ask | Name the reported filipin (z-score) value associated with the molecule CN1CCCC(CC2c3ccccc3Sc3ccccc32)C1 (stereo not given) [Metixene hydrochloride]
Reply | 1.94

Ask | Name the reported filipin (z-score) value associated with the molecule CC1CCc2cc(F)cc3c(=O)c(C(=O)O)cn1c23 (stereo not given) [Flumequine]
Reply | -0.72

Ask | Name the reported filipin (z-score) value associated with the molecule COc1ccc2cc(CCC(C)=O)ccc2c1 [Nabumetone]
Reply | -0.175

Ask | Name the reported filipin (z-score) value associated with the molecule Nc1ccn([C@@H]2CS[C@H](CO)O2)c(=O)n1 [Lamivudine]
Reply | -0.564

Ask | Name the reported filipin (z-score) value associated with the molecule O=C1NCN(c2ccccc2)C12CCN(CCCC(c1ccc(F)cc1)c1ccc(F)cc1)CC2 [Fluspirilen]
Reply | 4.14

Ask | Name the reported filipin (z-score) value associated with the molecule Cc1cn([C@H]2C[C@H](N=[N+]=[N-])[C@@H](CO)O2)c(=O)[nH]c1=O [Zidovudine, AZT]
Reply | -0.555

Ask | Name the reported filipin (z-score) value associated with the molecule CCC1(c2ccccc2)NC(=O)N(C)C1=O (stereo not given) [Mephenytoin]
Reply | -0.516

Ask | Name the reported filipin (z-score) value associated with the molecule COc1c2occc2c(OC)c2c(=O)cc(C)oc12 [Khellin]
Reply | -0.439

Ask | Name the reported filipin (z-score) value associated with the molecule CC(=O)CC(c1ccccc1)c1c(O)c2ccccc2oc1=O (stereo not given) [Warfarin]
Reply | -0.372
